Biological target: T1, cyno IL-23 (cyno, limits assumed)
T1 construct: Heterodimer of p19 and p40; also called cynomolgus IL-23
T1 chain 1: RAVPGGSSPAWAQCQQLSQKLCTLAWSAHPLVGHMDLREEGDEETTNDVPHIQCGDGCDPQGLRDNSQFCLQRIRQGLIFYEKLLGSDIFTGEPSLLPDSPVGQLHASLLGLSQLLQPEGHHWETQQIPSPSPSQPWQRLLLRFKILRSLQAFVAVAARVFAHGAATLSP
T1 chain 2: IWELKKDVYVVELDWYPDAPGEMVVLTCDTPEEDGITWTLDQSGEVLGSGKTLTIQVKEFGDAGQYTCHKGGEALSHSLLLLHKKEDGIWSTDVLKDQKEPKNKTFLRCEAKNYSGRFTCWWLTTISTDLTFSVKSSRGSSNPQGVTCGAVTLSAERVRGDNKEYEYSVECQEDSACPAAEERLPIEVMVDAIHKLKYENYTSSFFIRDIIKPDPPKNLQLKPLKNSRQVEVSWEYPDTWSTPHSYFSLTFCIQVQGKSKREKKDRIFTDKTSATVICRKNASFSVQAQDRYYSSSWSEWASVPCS
Test: SPR Biacore T100, mAb from HEK supernatant captured on anti-human IgG, one concentration of cyno IL-23 (256 nM)
Property Label: kon (M⁻¹ s⁻¹)
Reply with just the number (in M⁻¹ s⁻¹).

Dear colleague, I am looking for the recorded kon of the following binder: A5M20 (antibody, human IgG1, kappa, V domains shown) VH: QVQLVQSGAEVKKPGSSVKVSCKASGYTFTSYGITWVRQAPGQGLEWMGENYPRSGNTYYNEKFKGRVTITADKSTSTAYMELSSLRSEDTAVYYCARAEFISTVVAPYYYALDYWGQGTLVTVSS VL: DIVMTQSPDSLAVSLGERATINCKASKKVTIFGSISALHWYQQKPGQPPKLIYNLAKLESGVPDRFSGSGSGTDFTLTISSLQAEDVAVYYCLQNKEVPYTFGGGTKVEIKR
2.66e+06

Dear colleague, I am looking for the recorded kon of the following binder: A3M18 (antibody, human IgG1, kappa, V domains shown) VH: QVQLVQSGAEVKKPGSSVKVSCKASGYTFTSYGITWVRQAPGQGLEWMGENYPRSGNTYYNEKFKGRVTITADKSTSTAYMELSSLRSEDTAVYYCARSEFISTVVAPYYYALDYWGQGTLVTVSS VL: DIVMTQSPDSLAVSLGERATINCKASKKVTIFGSTSALHWYQQKPGQPPKLIYNLAKPESGVPDRFSGSGSGTDFTLTISSLQAEDVAVYYCLQNKEVPYTFGGGTKVEIKR
883000

Dear colleague, I am looking for the recorded kon of the following binder: A5M21 (antibody, human IgG1, kappa, V domains shown) VH: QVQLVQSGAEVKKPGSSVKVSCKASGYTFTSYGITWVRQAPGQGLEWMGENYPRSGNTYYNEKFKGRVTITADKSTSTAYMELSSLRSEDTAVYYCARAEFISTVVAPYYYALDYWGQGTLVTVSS VL: DIVMTQSPDSLAVSLGERATINCKASKKVTIYGSTSALHWYQQKPGQPPKLIYNLAKPESGVPDRFSGSGSGTDFTLTISSLQAEDVAVYYCLQNKEVPYTFGGGTKVEIKR
727000
